The following compounds are listed with their measured growth inhibition values.
test: NCI Yeast Anticancer Drug Screen. Data for the cln2 rad14 strain (AID 165);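 note: 0% = growth equal to vehicle treated cultures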; details: S. cerevisiae cln2 rad14 strain, at 50.0 µM, hits give high values
The panel holds about 79,000 compounds, 15% with a hit somewhere; the sample as a whole holds those more often.
test readout: growth inhibition (%)

compound	measured value
O=C(CC12C3C4C1C1C2C3C41CC(=O)NO)NO (stereo unspecified)	11.9
N#CC1(Cc2ccccc2)c2ccccc2-c2ccccc21	1.85
Cn1c2ccccc2c2oc(CO)cc(=O)c21	23.9
O=C(CCn1[nH]c(=O)c(Cl)c(Cl)c1=O)NOCCCc1ccccc1	-7.95
CS(=O)(=O)CC1=NC(=N)N=C1CS(C)(=O)=O	-4.85
COC(=O)C(NC(=O)C(=O)NC(C(=O)OC)C(C)(C)S)C(C)(C)S (stereo unspecified)	-12.7

----------
experiment: NCI Yeast Anticancer Drug Screen. Data for the bub3 strain (AID 167); conditions: S. cerevisiae bub3 mutant strain, at 50.0 µM, hits give high values
About 79,000 compounds went through this panel and 15% of them were active in at least one assay; those are over-represented in the sample as a whole.
growth inhibition overview

compound	reading unit	growth inhibition
COc1ccc(-c2cc3cc(Cl)cc(Cl)c3oc2=O)cc1OC	%	-3.25
CCCc1n[nH]c(=S)n1N1C(=S)NC(C)(C)C=C1C	%	4.1
O=C1C=C(c2ccccc2)Sc2ccccc2N1	%	26.1
CN1CCCC2C(c3ccccc3)C(C3=NCCCC3)C(c3ccccc3)CC21 (stereo not drawn)	%	-64.9
COc1ccc2nc3cc(Cl)ccc3c(NCCC3CCCN4CCCCC34)c2c1 (stereo not drawn)	%	12.4
C[Si](C)(CCCOC(N)=O)COC(N)=O	%	4.8
CCOC(=O)CCOc1ccccc1	%	-0.85
Cc1cc2c(cc1Cl)SC(NNC(=O)c1ccccc1)=NS2(=O)=O	%	-31.1

----------
test: NCI Yeast Anticancer Drug Screen. Data for the mlh1 rad18 strain (AID 175); details: S. cerevisiae mlh1 rad18 strain growth inhibition; at 50.0 µM; hits give high values
This is part of a sample that, as a whole, favours compounds with a hit. Of some 79,000 tested, about 15% had one in any assay.

molecule	growth inhibition, %
COc1ccc(Cl)[n+]([O-])n1	-29.6
CCOC(=O)C(O)(NC(=O)Nc1ccc(F)cc1)C(F)(F)F (configuration not stated)	-60.9
N#C/C(=C\c1ccc[nH]1)C(=O)c1ccccc1	-28.6
O=C=Nc1cccc([N+](=O)[O-])c1	-40.5
NCCNCc1ccncc1	-27.2
CCOC(=O)c1ccc(-n2c(SCC)nc3sc(C)c(C)c3c2=O)cc1	-29.3
CCOC(=O)NC(Nc1ccc(F)c(F)c1)(C(=O)OCC)C(F)(F)F (configuration not stated)	39.5
CCCC(=O)Oc1ccc(C(=O)OC)cc1	13.3
CC(=O)Nc1ccc2c(c1)Cc1ccc(S(C)(=O)=O)cc1-2	44.1
O=C(O)C(CO)Nc1ccccc1 (configuration not stated)	21.7
COc1cccc(NC(=O)CC(=O)NN2C(=O)/C(=C/c3ccc(N(CCC#N)CCC#N)cc3)N=C2c2cc([N+](=O)[O-])ccc2Cl)c1	14.6
CNC(=S)ON1CCCCC1	-38.5

----------
assay: NCI Yeast Anticancer Drug Screen. Data for the bub3 strain (AID 167); conditions: S. cerevisiae bub3 mutant strain, at 50.0 µM, hits give high values
The panel holds about 79,000 compounds, 15% with a hit somewhere; the sample as a whole holds those more often.
Collected growth inhibition values appear next to each entry.

compound	reading unit	growth inhibition
Clc1ccc(C2N3CCCCC3[C@@H]3c4[nH]c5ccccc5c4CCN23)cc1 (stereo partly drawn)	%	0.3
Nc1cccc(CCc2nc(N)nc(N)c2-c2ccc(Cl)cc2)c1	%	8.85
Cc1n[n+](CC(=O)c2ccccc2)c2sc(N)nn12	%	-16.1
